- Measured target: human transporter OAT3 (Homo sapiens, UniProt Q8TCC7)
- Construct: expressed in transfected cells; host or cells: MDCK-II
- Sequence (Q8TCC7 1-542): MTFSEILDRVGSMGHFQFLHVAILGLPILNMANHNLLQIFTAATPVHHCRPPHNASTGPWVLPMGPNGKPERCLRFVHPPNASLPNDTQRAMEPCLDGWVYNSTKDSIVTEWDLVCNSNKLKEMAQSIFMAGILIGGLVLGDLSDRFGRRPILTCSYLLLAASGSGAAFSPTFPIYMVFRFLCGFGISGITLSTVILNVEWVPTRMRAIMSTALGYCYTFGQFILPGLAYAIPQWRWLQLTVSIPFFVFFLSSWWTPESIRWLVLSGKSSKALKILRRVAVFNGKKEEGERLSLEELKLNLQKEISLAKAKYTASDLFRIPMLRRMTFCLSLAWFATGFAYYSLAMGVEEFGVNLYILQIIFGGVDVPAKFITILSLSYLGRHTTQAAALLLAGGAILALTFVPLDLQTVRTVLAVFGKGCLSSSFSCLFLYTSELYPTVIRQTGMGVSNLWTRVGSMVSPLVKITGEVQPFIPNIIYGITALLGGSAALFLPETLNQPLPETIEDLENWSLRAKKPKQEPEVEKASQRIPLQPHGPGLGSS
- Assay comment: In vitro transport assay 2, OAT3
- Type: cell-based
- Condition info: 100 nM [3H]-estrone-3-sulfate, read-out: IC50, OAT3 (Substrate: E3S)
Property measured: pIC50
Numbers only, as −log10 of the molar value.

Determine from records and report pIC50 for O=S(=O)(c1ccc(-n2cn[nH]c2=S)cc1)c1ccc(Cl)c(C(F)(F)F)c1 [Compound 1]
6.05
